target: Full Length hPPARα (Homo sapiens, UniProt Q07869); construct: Full Length; assay: Full length hPPARα transfection assay; conditions: full length receptor; read-out: Full Length hPPAR α EC50 (scaled number)
ASSAY ENDPOINT: EC50

Noted EC50 for Cc1ccc(Cn2cc(C(C)OC(=O)c3ccc(SC(C)(C)C(=O)O)cc3)nn2)cc1 (stereo not shown) [Compound 81] , tested on Full Length hPPARα (Homo sapiens, UniProt Q07869): < 1 nM

---

Documented EC50 across a set of compounds
molecular target: Gal-4 hPPARα (Homo sapiens, UniProt Q07869); construct: Plasmids pGal4-hPPARα, pGal4-hPPARγ, pGal4-hPPARδ and pG5-TK-pGL3 were constructed as previously described by Staels, Bart, et al., Nature 1998 Jun; 25; test: Gal4-hPPARα transient transfection reporter assay in Cos cells; details: luciferase reporter, 24 hours with compound, scale 1-5, read-out: Gal-4 hPPAR α EC50 (scaled number)

Consider the following illustrative entries.
- SAMPLE SMILES: "CCCCCCn1c(COC(=O)c2ccc(SC(C)(C)C(=O)O)cc2)nn(Cc2ccc(C(C)(C)C)cc2)c1=O"
  MEASURED ON: "Gal-4 hPPARα (Homo sapiens, UniProt Q07869)"
  EC50: "1 to 50 nM"
- SAMPLE SMILES: "CCCn1c(COC(=O)c2ccc(SC(C)(C)C(=O)O)cc2)nn(Cc2ccc(SC(F)(F)F)cc2)c1=O"
  MEASURED ON: "Gal-4 hPPARα (Homo sapiens, UniProt Q07869)"
  EC50: "51 to 200 nM"

Value of EC50 reported for the compound "CCCCCCn1c(COC(=O)c2ccc(SC(C)(C)C(=O)O)cc2)nn(Cc2ccc(C(OC)(C(F)(F)F)C(F)(F)F)cc2)c1=O" is 1 to 50 nM

Value of EC50 reported for the compound "CC(C)(Sc1ccc(C(=O)OCc2cn(Cc3ccc(OC(F)(F)F)cc3)nn2)cc1)C(=O)O" is 51 to 200 nM

Value of EC50 reported for the compound "CCCn1c(COC(=O)c2ccc(SC(C)(C)C(=O)O)cc2)nn(Cc2cccc(C(F)(F)F)c2)c1=O" is 51 to 200 nM

Value of EC50 reported for the compound "CC(C)(Sc1ccc(C(=O)OCc2cnn(Cc3ccc(OC(F)(F)F)cc3)c2)cc1)C(=O)O" is 1 to 50 nM

Value of EC50 reported for the compound "CCCn1c(COC(=O)c2ccc(OC(C)(C)C(=O)O)c(OC)c2)nn(Cc2ccc(C(C)(C)C)cc2)c1=O" is 201 to 999 nM

Value of EC50 reported for the compound "CCCCCCCCn1c(COC(=O)c2ccc(OC(C)(C)C(=O)O)c(OC)c2)nn(Cc2ccc(C)cc2)c1=O" is 1 to 50 nM

Value of EC50 reported for the compound "CCCn1c(COC(=O)c2ccc(OC(C)(C)C(=O)O)cc2)nn(Cc2ccc(SC(F)(F)F)cc2)c1=O" is 201 to 999 nM

Value of EC50 reported for the compound "CCCn1c(COC(=O)c2ccc(SC(C)(C)C(=O)O)cc2)nn(Cc2ccc(-c3ccccc3)cc2)c1=O" is 1 to 50 nM

Value of EC50 reported for the compound "CCCn1c(COC(=O)c2ccc(OC(C)(C)C(=O)O)cc2)nn(Cc2cc(C(F)(F)F)cc(C(F)(F)F)c2)c1=O" is 201 to 999 nM

Value of EC50 reported for the compound "Cc1ccc(Cn2nc(COC(=O)c3ccc(SC(C)(C)C(=O)O)cc3)[nH]c2=O)cc1" is 51 to 200 nM

Value of EC50 reported for the compound "CCCn1c(COC(=O)c2ccc(OC(C)(C)C(=O)O)c(C)c2)nn(Cc2ccc(C(C)(C)C)cc2)c1=O" is 201 to 999 nM

Value of EC50 reported for the compound "Cc1ccc(Cn2cc(COC(=O)c3ccc(SC(C)(C)C(=O)O)cc3)cn2)cc1" is 51 to 200 nM

---

target: Gal-4 hPPARγ (Homo sapiens); construct: Plasmids pGal4-hPPARα, pGal4-hPPARγ, pGal4-hPPARδ and pG5-TK-pGL3 were constructed as previously described by Staels, Bart, et al., Nature 1998 Jun; 25; assay: Gal4-hPPARγ transient transfection reporter assay in Cos cells; details: luciferase reporter, 24 hours with compound, scale 1-5, read-out: Gal-4 hPPAR γ EC50 (scaled number)
Sequence (P37231 238-505 limits assumed): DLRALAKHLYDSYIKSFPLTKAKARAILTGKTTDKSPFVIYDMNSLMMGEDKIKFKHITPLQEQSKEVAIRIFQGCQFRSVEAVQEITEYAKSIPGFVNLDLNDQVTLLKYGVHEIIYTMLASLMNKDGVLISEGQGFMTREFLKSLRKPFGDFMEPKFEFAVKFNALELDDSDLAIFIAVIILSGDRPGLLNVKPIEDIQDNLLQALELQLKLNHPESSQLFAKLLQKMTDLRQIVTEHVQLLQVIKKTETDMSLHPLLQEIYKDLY
pEC50: −log10 of the molar value.
ASSAY ENDPOINT: pEC50

- COMPOUND: "CC(C)(Sc1ccc(C(=O)OCc2cnn(-c3ccc(C(F)(F)F)cc3)c2)cc1)C(=O)O [Compound 18]"
  pEC50: "6.00 to 6.70"
- COMPOUND: "CCCCCCCn1c(COC(=O)c2ccc(SC(C)(C)C(=O)O)cc2)nn(Cc2ccc(C(C)(C)C)cc2)c1=O [Compound 189]"
  pEC50: "7.30 to 9.00"

Value of pEC50 reported for the compound C[C@@H](OC(=O)c1ccc(SC(C)(C)C(=O)O)cc1)c1cn(Cc2cc(C(F)(F)F)cc(C(F)(F)F)c2)nn1 [Compound 140] is < 6.00

Value of pEC50 reported for the compound CCCCCCCn1c(COC(=O)c2ccc(OC(C)(C)C(=O)O)cc2)nn(Cc2ccc(C)cc2)c1=O [Compound 192] is < 6.00

---

test system: pig liver esterase; assay: Metabolism studies using pig liver esterase; type: in vitro ADME; details: pig liver esterase in phosphate buffer pH 7.4, no plasma, 37° C.; read-out: Pig Liver Esterase (t1/2 min.) (−) Plasma
ASSAY ENDPOINT: half-life at 4.9 µM

Consider the following illustrative entries.
- SAMPLE SMILES: "CCCCCCCCn1c(COC(=O)c2ccc(SC(C)(C)C(=O)O)cc2)nn(Cc2ccc(C)cc2)c1=O"
  MEASURED ON: "pig liver esterase"
  half-life at 4.9 µM: "< 5 min"
- SAMPLE SMILES: "CCCCCCCCn1c(COC(=O)Cc2ccc(OC(C)(C)C(=O)O)cc2)nn(Cc2ccc(C)cc2)c1=O"
  MEASURED ON: "pig liver esterase"
  half-life at 4.9 µM: "12 min"
- SAMPLE SMILES: "CCCn1nc(Cc2ccc(C)cc2)cc1COC(=O)c1ccc(SC(C)(C)C(=O)O)cc1"
  MEASURED ON: "pig liver esterase"
  half-life at 4.9 µM: "< 1 min"
- SAMPLE SMILES: "CCCn1c([C@@H](C)OC(=O)c2ccc(SC(C)(C)C(=O)O)cc2)nn(Cc2ccc(C)cc2)c1=O"
  MEASURED ON: "pig liver esterase"
  half-life at 4.9 µM: "> 120 min"
- SAMPLE SMILES: "CCCCCCCn1c(COC(=O)c2ccc(SC(C)(C)C(=O)O)cc2)nn(Cc2ccc(C(C)(C)C)cc2)c1=O"
  MEASURED ON: "pig liver esterase"
  half-life at 4.9 µM: "< 5 min"

In the following, a different compound is considered.
Value of half-life at 4.9 µM reported for the compound "CCCc1nn(Cc2ccc(C(F)(F)F)cc2)cc1COC(=O)c1ccc(SC(C)(C)C(=O)O)cc1" is < 5 min

---

Tested on: pig liver esterase
Assay: Metabolism studies using pig liver esterase
Type: in vitro ADME
Settings: pig liver esterase in human plasma protein solution, 37° C.; read-out: Pig Liver Esterase (t1/2 min.) (+) Plasma
Procedure: The esterase-mediated metabolism of these compounds was studied using commercially available pig liver esterase in the presence and absence of human plasma proteins. The disappearance of parent was monitored over the time course of the incubations using a LC-UV detection system. […] The samples were centrifuged at 14000 g for 15 minutes at 4° C. The supernatant was transferred to clean labeled HPLC injection vials and stored at −80° C. until analyzed. […]
ASSAY ENDPOINT: half-life at 4.9 µM

Consider the following illustrative entries.
- SAMPLE SMILES: "CCCCCCCCn1c(COC(=O)c2ccc(SC(C)(C)C(=O)O)cc2)nn(Cc2ccc(C)cc2)c1=O"
  REPORTED RESULT: "> 2 h"
- SAMPLE SMILES: "CCCCCCn1c(COC(=O)c2ccc(SC(C)(C)C(=O)O)cc2)nn(Cc2ccc(C)cc2)c1=O"
  REPORTED RESULT: "> 2 h"

In the following, a different compound is considered.
Value of half-life at 4.9 µM reported for the compound "C[C@@H](OC(=O)c1ccc(SC(C)(C)C(=O)O)cc1)c1cn(Cc2ccc(C(F)(F)F)cc2)nn1" is > 2 h

---

Molecular target: Full Length hPPARα (Homo sapiens, UniProt Q07869)
Construct: Full Length
Sequence (Q07869 1-468): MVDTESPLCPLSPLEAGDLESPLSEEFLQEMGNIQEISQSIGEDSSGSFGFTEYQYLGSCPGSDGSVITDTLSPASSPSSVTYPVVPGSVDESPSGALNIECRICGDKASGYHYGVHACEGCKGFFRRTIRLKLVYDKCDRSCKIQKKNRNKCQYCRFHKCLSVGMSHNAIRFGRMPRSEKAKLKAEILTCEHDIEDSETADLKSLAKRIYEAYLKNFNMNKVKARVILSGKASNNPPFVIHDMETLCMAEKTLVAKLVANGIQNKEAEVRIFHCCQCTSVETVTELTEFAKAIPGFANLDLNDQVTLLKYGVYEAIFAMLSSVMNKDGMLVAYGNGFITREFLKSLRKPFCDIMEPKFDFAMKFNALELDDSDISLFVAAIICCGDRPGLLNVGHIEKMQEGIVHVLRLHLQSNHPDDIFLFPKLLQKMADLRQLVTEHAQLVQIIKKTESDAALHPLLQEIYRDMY
Assay: Full length hPPARα transfection assay
Conditions: full length receptor; read-out: Full Length hPPAR α EC50 (scaled number)
Documented EC50 across a set of molecules

- SAMPLE SMILES: "CCCCCCn1c(COC(=O)c2ccc(OC(C)(C)C(=O)O)cc2)nn(Cc2ccc(C(C)(C)C)cc2)c1=O"
  MEASURED ON: "Full Length hPPARα (Homo sapiens, UniProt Q07869)"
  EC50: "< 1 nM"
- SAMPLE SMILES: "CCCCCCn1c(COC(=O)c2ccc(OC(C)(C)C(=O)O)cc2)nn(Cc2ccc(C)cc2)c1=O"
  MEASURED ON: "Full Length hPPARα (Homo sapiens, UniProt Q07869)"
  EC50: "< 1 nM"

In the following, a different molecule is considered.
Value of EC50 reported for the molecule "CC(C)c1ccc(-n2cc(COC(=O)c3ccc(SC(C)(C)C(=O)O)cc3)nn2)cc1" is 1 to 50 nM
